meta.source: ChEMBL document CHEMBL3091401

test_description: Aqueous solubility of the compound
Format: physicochemical
assay_setup: buffer

>  <smiles_text>
O=C(NC1CC1)c1cc2c(s1)-c1ccccc1N(C(=O)[C@H]1C[C@@H](NC(=O)c3cccnc3N3CCCC3)C1)CC2

>  <unit_of_measure>
µM

>  <lt_gt_eq>
=

>  <solubility>
2

$$$$
>  <smiles_text>
O=C(NC1CC1)c1cc2c(s1)-c1ccccc1N(C(=O)c1ccc(NC(=O)c3ccncc3N3CCC4(CC3)COC4)cc1)CC2

>  <unit_of_measure>
µM

>  <lt_gt_eq>
<

>  <solubility>
1

$$$$
>  <smiles_text>
O=C(NC1CC1)c1cc2n(n1)CCN(C(=O)c1ccc(NC(=O)c3cccnc3N3CCCC3)cc1)c1ccccc1-2

>  <unit_of_measure>
µM

>  <lt_gt_eq>
=

>  <solubility>
32

$$$$
>  <smiles_text>
O=C(NC1CC1)c1cc2c(s1)-c1ccccc1N(C(=O)c1ccc(NC(=O)c3cccnc3N3CCCC3)nc1)CC2

>  <unit_of_measure>
µM

>  <lt_gt_eq>
=

>  <solubility>
3

$$$$
>  <smiles_text>
O=C(NC1CC1)c1cc2c(s1)-c1ccccc1N(C(=O)c1ccc(NC(=O)c3ncccc3N3CCC4(CC3)COC4)cc1)CC2

>  <unit_of_measure>
µM

>  <lt_gt_eq>
<

>  <solubility>
1

$$$$
>  <smiles_text>
O=C(NC1CC1)c1cc2c(s1)-c1ccccc1N(C(=O)c1ccc(NC(=O)c3ccccc3N3CCC4(CC3)COC4)cc1)CC2

>  <unit_of_measure>
µM

>  <lt_gt_eq>
<

>  <solubility>
1

$$$$
>  <smiles_text>
CC(=O)N1CC2(CCN(c3ncccc3C(=O)Nc3ccc(C(=O)N4CCc5cc(C(=O)NC6CC6)sc5-c5ccccc54)cc3)CC2)C1

>  <unit_of_measure>
µM

>  <lt_gt_eq>
=

>  <solubility>
4

$$$$

###

test_description: Cytotoxicity against human Hep2 cells
Assay type: cell-based, HEp-2

>  <smiles_text>
O=C(NC1CC1)c1cc2c(s1)-c1ccccc1N(C(=O)c1ccc(NC(=O)c3ccncc3N3CCC4(CC3)COC4)cc1)CC2

>  <CC50>
4.8 µM

$$$$
>  <smiles_text>
CC(=O)N1CC2(CCN(c3ncccc3C(=O)Nc3ccc(C(=O)N4CCc5cc(C(=O)NC6CC6)sc5-c5ccccc54)cc3)CC2)C1

>  <CC50>
34 µM

$$$$
>  <smiles_text>
O=C(NC1CC1)c1cc2c(s1)-c1ccccc1N(C(=O)c1ccc(NC(=O)c3ccccc3N3CCC4(CC3)COC4)cc1)CC2

>  <CC50>
> 50 µM

$$$$
>  <smiles_text>
O=C(NC1CC1)c1cc2c(s1)-c1ccccc1N(C(=O)c1ccc(NC(=O)c3cccnc3N3CCC4(CCOCC4)CC3)cc1)CC2

>  <CC50>
> 50 µM

$$$$
>  <smiles_text>
O=C(NC1CC1)c1cc2c(s1)-c1ccccc1N(C(=O)c1ccc(NC(=O)c3ncccc3N3CCC4(CC3)COC4)cc1)CC2

>  <CC50>
43 µM

$$$$
>  <smiles_text>
O=C(NC1CC1)c1cc2c(s1)-c1ccccc1N(C(=O)c1ccc(NC(=O)c3cccnc3N3CCOCC3)cc1)CC2

>  <CC50>
> 50 µM

$$$$
>  <smiles_text>
COc1ccc(C(=O)Nc2ccc(C(=O)N3CCc4cc(C(=O)NC5CC5)sc4-c4ccccc43)cc2)c(N2CCC3(CC2)COC3)n1

>  <CC50>
> 50 µM

$$$$
>  <smiles_text>
O=C(NC1CC1)c1cc2c(s1)-c1ccccc1N(C(=O)c1ccc(NC(=O)c3cnccc3N3CCC4(CC3)COC4)cc1)CC2

>  <CC50>
34 µM

$$$$
>  <smiles_text>
O=C(NC1CC1)c1cc2c(s1)-c1ccccc1N(C(=O)c1ccc(NC(=O)c3cccnc3N3CC4(CCOCC4)C3)cc1)CC2

>  <CC50>
> 50 µM

$$$$
>  <smiles_text>
O=C(NC1CC1)c1cc2c(s1)-c1ccccc1N(C(=O)c1ccc(NC(=O)c3cccnc3N3CCS(=O)(=O)CC3)cc1)CC2

>  <CC50>
> 50 µM

$$$$
>  <smiles_text>
O=C(NC1CC1)c1cc2c(s1)-c1ccccc1N(C(=O)c1ccc(NC(=O)c3cccnc3N3CCCC3)cc1)CC2

>  <CC50>
> 50 µM

$$$$
>  <smiles_text>
O=C(NC1CC1)c1cc2c(s1)-c1ccccc1N(C(=O)c1ccc(NC(=O)c3cccnc3N3CC[S+]([O-])CC3)cc1)CC2

>  <CC50>
> 50 µM

$$$$
>  <smiles_text>
CN(C)CC1(O)CN(c2ncccc2C(=O)Nc2ccc(C(=O)N3CCc4cc(C(=O)NC5CC5)sc4-c4ccccc43)cc2)C1

>  <CC50>
> 50 µM

$$$$
>  <smiles_text>
O=C(NC1CC1)c1cc2c(s1)-c1ccccc1N(C(=O)c1ccc(NC(=O)c3cccnc3N3CCC4(CC3)COC4)cc1)CC2

>  <CC50>
> 50 µM

$$$$
>  <smiles_text>
O=C(NC1CC1)c1cc2c(s1)-c1ccccc1N(C(=O)c1ccc(NC(=O)c3cccnc3N3CCN(CCO)CC3)cc1)CC2

>  <CC50>
> 50 µM

$$$$
>  <smiles_text>
CN1CC2(CCN(c3ncccc3C(=O)Nc3ccc(C(=O)N4CCc5cc(C(=O)NC6CC6)sc5-c5ccccc54)cc3)CC2)C1

>  <CC50>
34 µM

$$$$

###

test_description: Aqueous solubility of the compound
Assay type: physicochemical
assay_setup: buffer

>  <smiles_text>
O=C(NC1CC1)c1cc2c(s1)-c1cnccc1N(C(=O)c1ccc(NC(=O)c3cccnc3N3CCCC3)cc1)CC2

>  <solubility>
1 µM

$$$$
>  <smiles_text>
O=C(NC1CC1)c1cc2c(s1)-c1cccnc1N(C(=O)c1ccc(NC(=O)c3cccnc3N3CCCC3)cc1)CC2

>  <solubility>
10 µM

$$$$
>  <smiles_text>
O=C(NC1CC1)c1cc2c(s1)-c1ccccc1N(C(=O)c1ccc(NC(=O)c3cccnc3N3CCC4(CCOCC4)CC3)cc1)CC2

>  <solubility>
< 1 µM

$$$$
>  <smiles_text>
O=C(NC1CC1)c1cc2c(s1)-c1ccccc1N(C(=O)c1ccc(NC(=O)c3cccnc3N3CC[S+]([O-])CC3)cc1)CC2

>  <solubility>
26 µM

$$$$
>  <smiles_text>
COc1ccc(C(=O)Nc2ccc(C(=O)N3CCc4cc(C(=O)NC5CC5)sc4-c4ccccc43)cc2)c(N2CCC3(CC2)COC3)n1

>  <solubility>
< 1 µM

$$$$
>  <smiles_text>
O=C(NC1CC1)c1cc2c(s1)-c1ccccc1N(C(=O)c1ccc(NC(=O)c3cccnc3N3CC4(CCOCC4)C3)cc1)CC2

>  <solubility>
< 1 µM

$$$$
>  <smiles_text>
O=C(NC1CC1)c1cc2c(s1)-c1ccccc1N(C(=O)c1ccc(NC(=O)c3cnccc3N3CCC4(CC3)COC4)cc1)CC2

>  <solubility>
9 µM

$$$$

###

test_description: Aqueous solubility of the compound
Type: physicochemical
assay_setup: buffer
measured_property: log10 solubility (log10 of the value in µM)

>  <smiles_text>
O=C(NC1CC1)c1cn2c(n1)-c1ccccc1N(C(=O)c1ccc(NC(=O)c3cccnc3N3CCCC3)cc1)CC2

>  <measured_property>
log10 solubility

>  <recorded_measurement>
2.08

$$$$
>  <smiles_text>
O=C(NC1CC1)c1cc2c(s1)-c1ccccc1N(C(=O)c1ccc(NC(=O)c3cccnc3N3CCOCC3)cc1)CC2

>  <measured_property>
log10 solubility

>  <recorded_measurement>
1.56

$$$$
>  <smiles_text>
O=C(NC1CC1)c1cc2c(s1)-c1ccccc1N(C(=O)c1ccc(NC(=O)c3cccnc3N3CCCC3)cn1)CC2

>  <measured_property>
log10 solubility

>  <recorded_measurement>
0.48

$$$$
>  <smiles_text>
O=C(NC1CC1)c1cc2c(s1)-c1ccccc1N(C(=O)c1ccc(NC(=O)c3cccnc3N3CCN(CCO)CC3)cc1)CC2

>  <measured_property>
log10 solubility

>  <recorded_measurement>
1.60

$$$$
>  <smiles_text>
O=C(NC1CC1)c1cc2c(s1)-c1ccccc1N(C(=O)N1CCC(NC(=O)c3cccnc3N3CCCC3)CC1)CC2

>  <measured_property>
log10 solubility

>  <recorded_measurement>
1.41

$$$$
>  <smiles_text>
O=C(NC1CC1)c1cc2c(s1)-c1ccccc1N(C(=O)[C@H]1CC[C@H](NC(=O)c3cccnc3N3CCCC3)CC1)CC2

>  <measured_property>
log10 solubility

>  <recorded_measurement>
1.04

$$$$
>  <smiles_text>
O=C(NC1CC1)c1cc2c(s1)-c1ccccc1N(C(=O)c1ccc(NC(=O)c3cccnc3N3CCS(=O)(=O)CC3)cc1)CC2

>  <measured_property>
log10 solubility

>  <recorded_measurement>
0.60

$$$$
